Molecular target: GABAA receptor α2β3γ2 (Homo sapiens, UniProt P18507+P47869)
Construct: expressed in transfected cells; host or cells: Xenopus laevis oocytes injected with cRNA
Sequence (P47869 29-451): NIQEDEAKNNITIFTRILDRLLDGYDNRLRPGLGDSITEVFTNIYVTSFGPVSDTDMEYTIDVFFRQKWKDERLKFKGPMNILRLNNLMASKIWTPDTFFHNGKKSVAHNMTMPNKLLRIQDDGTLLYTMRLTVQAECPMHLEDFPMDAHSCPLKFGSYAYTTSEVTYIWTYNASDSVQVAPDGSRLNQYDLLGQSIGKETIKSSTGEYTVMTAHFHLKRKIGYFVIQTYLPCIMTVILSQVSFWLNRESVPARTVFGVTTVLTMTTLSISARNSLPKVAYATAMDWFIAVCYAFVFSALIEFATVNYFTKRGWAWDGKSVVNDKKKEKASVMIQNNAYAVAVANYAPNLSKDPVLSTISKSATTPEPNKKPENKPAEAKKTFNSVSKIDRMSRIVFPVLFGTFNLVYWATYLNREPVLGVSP
Sequence (P28472 26-473 partner): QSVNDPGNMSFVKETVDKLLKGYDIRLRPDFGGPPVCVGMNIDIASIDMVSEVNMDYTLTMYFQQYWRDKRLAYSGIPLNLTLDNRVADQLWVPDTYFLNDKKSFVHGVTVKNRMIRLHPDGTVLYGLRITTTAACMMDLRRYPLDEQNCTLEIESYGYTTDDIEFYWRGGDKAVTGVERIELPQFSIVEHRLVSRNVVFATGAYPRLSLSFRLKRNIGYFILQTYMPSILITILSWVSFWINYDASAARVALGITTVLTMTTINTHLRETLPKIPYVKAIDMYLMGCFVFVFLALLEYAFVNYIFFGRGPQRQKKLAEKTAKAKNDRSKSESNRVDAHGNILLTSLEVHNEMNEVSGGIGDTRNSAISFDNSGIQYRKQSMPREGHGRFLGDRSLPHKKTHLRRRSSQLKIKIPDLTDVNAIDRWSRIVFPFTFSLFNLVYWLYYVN
Sequence (P18507 40-475): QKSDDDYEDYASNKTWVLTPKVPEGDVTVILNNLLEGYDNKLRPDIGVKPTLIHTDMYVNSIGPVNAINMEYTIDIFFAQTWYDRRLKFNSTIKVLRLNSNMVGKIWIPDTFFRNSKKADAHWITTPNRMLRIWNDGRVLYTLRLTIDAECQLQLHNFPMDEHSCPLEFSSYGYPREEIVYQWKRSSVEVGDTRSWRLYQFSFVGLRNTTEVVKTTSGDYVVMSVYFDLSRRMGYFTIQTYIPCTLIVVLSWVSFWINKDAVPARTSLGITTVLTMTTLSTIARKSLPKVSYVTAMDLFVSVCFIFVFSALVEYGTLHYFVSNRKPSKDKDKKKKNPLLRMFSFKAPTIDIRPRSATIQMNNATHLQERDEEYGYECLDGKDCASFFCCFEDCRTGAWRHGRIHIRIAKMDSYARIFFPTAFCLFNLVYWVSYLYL
Test: Two-electrode voltage-clamp potentiation of GABA EC10 current in Xenopus oocytes, GABAA2
Assay type: cell-based
Conditions: percentage potentiation of GABA EC10 current divided by that of diazepam
We use 0.2 as the dividing line for Relative Potentiation for GABAA2: on or above the line is 1, below is -1.

Worked examples, 3 molecules total:
{"MOLECULE": "COc1ccc(F)c(-c2c(F)ccc3c(N)c4c(nc23)CN(C2CC2)C4=O)c1", "SYSTEM NAME": "GABAA receptor α2β3γ2 (Homo sapiens, UniProt P18507+P47869)", "CATEGORY LABEL": -1}
{"MOLECULE": "COc1ncccc1-c1c(F)ccc2c(N)c3c(nc12)CN(C1CCOC1)C3=O (stereo not shown)", "SYSTEM NAME": "GABAA receptor α2β3γ2 (Homo sapiens, UniProt P18507+P47869)", "CATEGORY LABEL": 1}
{"MOLECULE": "COc1ncccc1-c1c(F)ccc2c(N)c3c(nc12)CN(C1CCC1)C3=O", "SYSTEM NAME": "GABAA receptor α2β3γ2 (Homo sapiens, UniProt P18507+P47869)", "CATEGORY LABEL": 1}

[Q] Could you verify whether the entry CCCN1Cc2nc3c(-c4ccc(C)nc4Cl)cccc3c(N)c2C1=O shows Relative Potentiation for GABAA2 of no less than 0.2?
[A] 1

[Q] Now try Nc1c2c(nc3c(-c4ccccn4)cccc13)CN(C1CCC1)C2=O .
[A] -1

Attribution: patent US20080318943A1
